biological target: human GPCR sphingosine 1-phosphate receptor 1 (Homo sapiens, UniProt P21453); construct: host or cells: CHO; assay: S1PR1 selectivity Ca2+ flux assay (antagonist readout); format: cell-based; settings: antagonist readout, CHO cells overexpressing human S1PR1 and Gq, S1P at EC80 (6 nM); read-out: S1P1 EC50 (nM), S1P1 antagonist EC50
Sequence (P21453 whole entry): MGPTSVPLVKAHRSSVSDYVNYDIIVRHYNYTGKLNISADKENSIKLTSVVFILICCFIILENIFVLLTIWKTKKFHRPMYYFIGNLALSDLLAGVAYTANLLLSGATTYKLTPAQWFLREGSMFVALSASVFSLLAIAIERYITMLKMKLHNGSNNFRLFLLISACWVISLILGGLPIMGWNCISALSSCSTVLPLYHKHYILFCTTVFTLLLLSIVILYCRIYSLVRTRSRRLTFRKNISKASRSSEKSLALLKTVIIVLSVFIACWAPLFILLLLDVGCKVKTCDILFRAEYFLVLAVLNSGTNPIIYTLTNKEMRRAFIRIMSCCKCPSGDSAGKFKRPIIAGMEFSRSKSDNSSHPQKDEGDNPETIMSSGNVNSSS
Measured metric: EC50

Solved cases (5 shown):
N#Cc1ccc2c(=O)n(CC(=O)N3CCOCC3)nc(Cc3nc4cc(OCC(F)F)c(Cl)cc4[nH]3)c2c1	≥ 19800 nM
O=c1c2ccccc2c(Cc2nc3cc(Cl)c(OC(F)(F)F)cc3[nH]2)nn1C1CC1	4710 nM
O=c1c2ccccc2c(Cc2nc3cc(Cl)c(OC(F)(F)F)cc3[nH]2)nn1CC1CCNCC1	≥ 19800 nM
O=C(O)c1nn(Cc2cn3cc(OCC4CC4)c(Cl)cc3n2)c2ccccc2c1=O	≥ 19800 nM
COc1ccc2c(Cn3cc4cc(OCC5CC5)c(Cl)cc4n3)nn(C(C)C(=O)O)c(=O)c2c1 (stereo not shown)	≥ 19800 nM

Task: Quick one: EC50 for COc1cc2nc(Cc3nn(CC(=O)O)c(=O)c4ccccc34)[nH]c2cc1Cl ?
Output: ≥ 19900 nM

Task: And the next one, N#Cc1cc2[nH]c(Cn3nc(CC(=O)N4CCOCC4)c(=O)c4ccccc43)nc2cc1OCC(F)F ?
Output: ≥ 19800 nM

Task: Now the compound N#Cc1cc2nc(Cc3nn(C4CC4)c(=O)c4ccccc34)[nH]c2cc1OCC1CC1
Output: ≥ 19800 nM

Task: Try CC(C(=O)O)n1nc(Cn2cc3cc(OCC4CC4)c(Cl)cc3n2)c2c(c1=O)CCCC2 (stereo not shown) next.
Output: ≥ 19800 nM

Task: Follow-up entry: Cc1cccc2c1c(=O)c(CC(=O)O)nn2Cc1cn2cc(OCC3CC3)c(Cl)cc2n1
Output: ≥ 19800 nM

Task: Queued: CC(C(=O)NS(C)(=O)=O)c1nn(Cc2cn3cc(OCC4CC4)c(Cl)cc3n2)c2ccccc2c1=O (stereo not shown)
Output: ≥ 19800 nM

Task: Could you do the same for N#Cc1ccc2c(=O)n(CC(=O)O)nc(Cc3nc4cc(Cl)c(OCC(F)F)cc4[nH]3)c2c1 , please?
Output: ≥ 19800 nM

Task: Now the same for CC(C)(C)NC(=O)Cn1nc(Cn2cc3cc(OCC4CC4)c(Cl)cc3n2)c2ccccc2c1=O
Output: ≥ 19800 nM

Task: Follow-up entry: CC(C(=O)O)n1nc(Cc2nc3cc(OCC4CC4)c(Cl)cc3[nH]2)c2ccccc2c1=O (stereo not shown)
Output: 3720 nM

Task: Also N#CC1(COc2cc3[nH]c(Cc4nn(CC(=O)N5CCOCC5)c(=O)c5ccccc45)nc3cc2Cl)CC1 , if possible.
Output: ≥ 19800 nM

Task: Further, for CCOc1cc2[nH]n(Cc3nn(CC(=O)O)c(=O)c4ccccc34)c(=O)c2cc1Cl ?
Output: ≥ 19800 nM

Hello, the source for this data is patent US20210315893A1, in case you need it.
